Answer each item with its documented 100 nM FACS (MFI Ratio).
Study target: T1, neuropilin-1 (NRP1) on HEK293 cells overexpressing NRP1 (UniProt O14786 22-923, limits assumed)
T1 construct: whole, on cells
Protocol text: flow cytometry, HEK293-NRP1 vs HEK293
Number only, no unit.

Exercise: Endpoint output: 100 nM FACS (MFI Ratio) of NRP1-286 (antibody, IgG2, V domains shown) VH: EVQLLESGGGLVQPGGSLRLSCAASGFTLSAYAMNWVRQAPGKGLEWVSSISGSGGATYYADSVKGRFTISRDNSKNTLYLQMNSLRAEDTAVYYCARVMKTTRRIVGRRLRKGDGLDVWGQGTLVTVSS VL: DIQMTQSPSSLSASVGDRVTITCRASQSIRNNLSWYQQKPGKAPKLLIYAASSLQTGVPSRFSGSGSGTDFTLTISSLQPEDFATYYCQQSFTIPRTFGGGTKVEIK . Value?
Solution: 1.4

Exercise: Endpoint output: 100 nM FACS (MFI Ratio) of NRP1-271 (antibody, IgG2, V domains shown) VH: EVQLLESGGGLVQPGGSLRLSCAASGFTFTTYGMSWVRQAPGKGLEWVSAISGSGGTTYYADSVKGRFTISRDNSKNTLYLQMNSLRAEDTAVYYCARVGPGRSIAARQGFKRRNNWFDPWGQGTLVTVSS VL: DIQMTQSPSSLSASVGDRVTITCRARQSISTYLNWYQQKPGKAPKLLIYSASTLESGVPSRFSGSGSGTDFTLTISSLQPEDFATYYCQQSYRTPWTFGGGTKVEIK . Value?
Solution: 0.8
